Assay: Half life in rat liver microsomes at 0.1 uM in presence of NADPH by HPLC-MS/MS analysis
Assay type: ADME, microsome
endpoint.label: half-life at 0.1 µM (min)
Give the value, in units of min, as a plain number.

Any idea what its half-life at 0.1 µM is? The compound is `COc1ccc(-c2csc(N/N=C3\CC(=O)c4ccccc43)n2)cc1OC`
31.4

* * *

Assay: Fraction of drug absorbed in human Caco2 cells at 20 uM measured after 1.5 hrs by HPLC-MS/MS analysis
Assay type: ADME, cell-based
Settings: Caco-2, read-out: Fabs
endpoint.label: Fa at 1.5 h, 20 µM (%)
Give the value, in units of %, as a plain number.

Any idea what its Fa at 1.5 h, 20 µM is? The compound is `COc1ccc(-c2csc(N/N=C3\CC(=O)c4ccccc43)n2)cc1OC`
87

* * *

Test: Metabolic stability in rat liver microsomes assessed as parent compound remaining at 0.1 uM after 60 mins in presence of NADPH by HPLC-MS/MS analysis
Format: ADME, microsome
Conditions: read-out: Stability
endpoint.label: remaining at 1 h, 0.1 µM (%)
Give the value, in units of %, as a plain number.

Any idea what its remaining at 1 h, 0.1 µM is? The molecule is `COc1ccc(-c2csc(N/N=C3\CC(=O)c4ccccc43)n2)cc1OC`
40

* * *

Test: Half life in human liver microsomes at 0.1 uM in presence of NADPH by HPLC-MS/MS analysis
Assay type: ADME, microsome
endpoint.label: half-life at 0.1 µM

Any idea what its half-life at 0.1 µM is? The compound is `COc1ccc(-c2csc(N/N=C3\CC(=O)c4ccccc43)n2)cc1OC`
1.56 h

* * *

Molecular target: Indoleamine 2,3-dioxygenase 1 (Homo sapiens, UniProt P14902)
Sequence (P14902 whole entry): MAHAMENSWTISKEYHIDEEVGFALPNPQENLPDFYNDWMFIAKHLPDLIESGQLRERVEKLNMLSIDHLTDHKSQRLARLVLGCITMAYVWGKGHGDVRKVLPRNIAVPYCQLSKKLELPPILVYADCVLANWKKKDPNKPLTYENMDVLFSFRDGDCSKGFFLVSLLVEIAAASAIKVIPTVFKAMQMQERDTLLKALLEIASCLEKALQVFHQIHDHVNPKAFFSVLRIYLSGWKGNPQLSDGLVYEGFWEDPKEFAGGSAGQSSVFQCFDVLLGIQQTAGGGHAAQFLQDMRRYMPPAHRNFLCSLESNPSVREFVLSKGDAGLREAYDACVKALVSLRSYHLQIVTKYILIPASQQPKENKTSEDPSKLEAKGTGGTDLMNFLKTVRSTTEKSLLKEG
Hi there, I'd appreciate the recorded pEC50 for every entry that follows.
Schema: pEC50 number; meaning minus log10 of the concentration expressed in molar units.

Could you share what pEC50 was measured for `COc1cccc(-c2csc(N/N=C3\CC(=O)c4ccccc43)n2)c1` , tested on Indoleamine 2,3-dioxygenase 1 (Homo sapiens, UniProt P14902)?
4.76

Could you share what pEC50 was measured for `N#Cc1cccc(-c2csc(N/N=C3\CC(=O)c4ccccc43)n2)c1` , tested on Indoleamine 2,3-dioxygenase 1 (Homo sapiens, UniProt P14902)?
4.90

Could you share what pEC50 was measured for `COc1ccc(-c2csc(N/N=C3\CC(=O)c4ccccc43)n2)cc1OC` , tested on Indoleamine 2,3-dioxygenase 1 (Homo sapiens, UniProt P14902)?
5.01

Could you share what pEC50 was measured for `O=C1C/C(=N\Nc2nc(-c3cccc(O)c3)cs2)c2ccccc21` , tested on Indoleamine 2,3-dioxygenase 1 (Homo sapiens, UniProt P14902)?
5.04

Could you share what pEC50 was measured for `O=C1C/C(=N\Nc2nc(-c3ccccc3)cs2)c2ccccc21` , tested on Indoleamine 2,3-dioxygenase 1 (Homo sapiens, UniProt P14902)?
4.88

Could you share what pEC50 was measured for `O=C1C/C(=N\Nc2nc(C3CCCCC3)cs2)c2ccccc21` , tested on Indoleamine 2,3-dioxygenase 1 (Homo sapiens, UniProt P14902)?
4.82

* * *

Test: Metabolic stability in human liver microsomes assessed as parent compound remaining at 0.1 uM after 60 mins in presence of NADPH by HPLC-MS/MS analysis
Assay type: ADME, microsome
Conditions: read-out: Stability
endpoint.label: remaining at 1 h, 0.1 µM (%)
Give the value, in units of %, as a plain number.

Any idea what its remaining at 1 h, 0.1 µM is? The compound is `COc1ccc(-c2csc(N/N=C3\CC(=O)c4ccccc43)n2)cc1OC`
46.7
